List of CC10 values.
Test system: AD293
assay explanation: Cytotoxicity against human AD293 cells assessed as reduction in cell viability after 24 hrs by methylene blue dye based spectrophotometric method
experimental context: ad293, 24 h
endpoint label: CC10

INSERT INTO results (chemical_structure, observed_result) VALUES
  ('C[C@@H](OC(=O)c1cccnc1)[C@]1(O)CC[C@@]2(O)[C@]1(C)[C@H](OC(=O)/C=C/c1ccccc1)C[C@@H]1[C@@]3(C)C=CC(=O)C=C3C=C[C@]12O', '> 10 µM'),
  ('C[C@@H](OC(=O)c1cccnc1)[C@]1(O)CC[C@@]2(O)[C@]1(C)[C@H](OC(=O)/C=C/c1ccccc1)C[C@@H]1[C@@]3(C)CC[C@H](OC(=O)c4ccccc4)CC3=CC[C@]12O', '> 10 µM'),
  ('CC(=O)[C@]1(O)CC[C@@]2(O)[C@]1(C)[C@H](OC(=O)c1ccc(O)cc1)C[C@@H]1[C@@]3(C)CC[C@H](OC(=O)CCl)CC3=CC[C@]12O', '> 10 µM');
